Test system: K. pneumoniae CQ1942
Assay: Broth microdilution MIC, glycosides with or without polymyxins
Type: cell-based, Klebsiella pneumoniae
Details: Cpd conc. 12.5 μg/mL; strain E
Measured Attribute: MIC of colistin in combination with the compound
Your answer should be a number followed by the unit of measure.

Completed entries (count: 2):
1. CCCCCCCCCCCCO[C@@H]1O[C@H](C)C[C@H](O)[C@H]1O [Compound 2] : 0.25 mg/L
2. CCCCCCCCCCCCO[C@H]1C[C@H](O)[C@@H](O)[C@H](C)O1 [Compound 3] : 0.25 mg/L

# return MIC of colistin in combination with the compound for each item in the list
1. CCCCCCCCCCCCO[C@@H]1C[C@@H](O)[C@H](O)[C@@H](CO)O1 [Compound 4]
2. CCCCCCCCCCCCO[C@H]1O[C@H](C)C[C@H](O)[C@H]1O [Compound 1]

1. 0.5 mg/L
2. 0.25 mg/L

Hi! What's the reported MIC of colistin in combination with the compound for CCCCCCCCCCCC[C@H]1O[C@H](C)C[C@H](O)[C@H]1O [Compound 5] on K. pneumoniae CQ1942?
0.25 mg/L

====

Tested on: HEK-293T cells
Assay: Resazurin cell viability assay (cytotoxicity)
Type: cell-based, human
Conditions: Homo sapiens, HEK-293T, 72 h, PMB 0.5 μg/mL, read-out: IC50
Measured Attribute: pIC50
Give bare numbers, as −log10 of the molar value.

Illustrative cases are given below, each with its answer.
1) CCCCCCCCCCCC[C@H]1O[C@H](C)C[C@H](O)[C@H]1O : 4.08
2) CCCCCCCCCCCCO[C@H]1C[C@H](O)[C@@H](O)[C@H](C)O1 : 4.12

Hi team, please reply with pIC50 for each item in this list.
1. CCCCCCCCCCCCO[C@@H]1O[C@H](C)C[C@H](O)[C@H]1O
2. CCCCCCCCCCCCO[C@H]1O[C@H](C)C[C@H](O)[C@H]1O

1: 4.09; 2: 4.17

====

System: P. aeruginosa CQ4924
Assay: Broth microdilution MIC, glycosides with or without polymyxins
Format: cell-based, Pseudomonas aeruginosa
Conditions: Cpd conc. 12.5 μg/mL; strain H
Measured Attribute: MIC of colistin in combination with the compound

1. CCCCCCCCCCCCO[C@H]1C[C@H](O)[C@@H](O)[C@H](C)O1 [Compound 3] : 0.5 µg/mL
2. CCCCCCCCCCCCO[C@@H]1O[C@H](C)C[C@H](O)[C@H]1O [Compound 2] : 0.5 µg/mL
3. CCCCCCCCCCCC[C@H]1O[C@H](C)C[C@H](O)[C@H]1O [Compound 5] : 0.5 µg/mL

Give one value of MIC of colistin in combination with the compound per listed compound.
1. CCCCCCCCCCCCO[C@@H]1C[C@@H](O)[C@H](O)[C@@H](CO)O1 [Compound 4]
2. CCCCCCCCCCCCO[C@H]1O[C@H](C)C[C@H](O)[C@H]1O [Compound 1]

> 0.5 µg/mL
> 0.5 µg/mL

====

Tested on: K. pneumoniae CQ1947
Experiment: Broth microdilution MIC, glycosides with or without polymyxins
Type: cell-based, Klebsiella pneumoniae
Settings: Cpd conc. 12.5 μg/mL; strain F
Exercise: state measured MIC of colistin in combination with the compound for each of the compounds provided.
Respond with a number, then the unit of measure.

1) CCCCCCCCCCCCO[C@@H]1O[C@H](C)C[C@H](O)[C@H]1O [Compound 2] : 0.5 µg/mL
2) CCCCCCCCCCCC[C@H]1O[C@H](C)C[C@H](O)[C@H]1O [Compound 5] : 0.25 µg/mL
3) CCCCCCCCCCCCO[C@H]1C[C@H](O)[C@@H](O)[C@H](C)O1 [Compound 3] : 0.5 µg/mL
4) CCCCCCCCCCCCO[C@@H]1C[C@@H](O)[C@H](O)[C@@H](CO)O1 [Compound 4] : 0.5 µg/mL

Would you kindly look at the next entry?
Value lookup for MIC of colistin in combination with the compound; key = CCCCCCCCCCCCO[C@H]1O[C@H](C)C[C@H](O)[C@H]1O [Compound 1]
0.5 µg/mL
